All figures here come from ChEMBL document CHEMBL1156984.

Test: Permeability by PAMPA method
Assay type: ADME
Settings: read-out: permeability
readout-type: Papp (×10⁻⁶ cm/s)

> print(dat)
                           molecular.string  value.measured
1  CCn1cnc(CN2CCN(c3cccn4cc(-c5ccc(C(C)(C)C)cc5)nc34)CC2)c1C             1.1
2  CCn1cc(CN2CCN(c3cccn4cc(-c5ccc(C(C)(C)C)cc5)nc34)CC2)c(=O)[nH]c1=O             1.2
3  CCc1nc(CN2CCN(c3cccn4cc(-c5ccc(C(C)(C)C)cc5)nc34)CC2)c(C)[nH]1             0.2
4  CCn1cnc(CN2CCN(c3cccc4[nH]c(-c5ccc(C(C)(C)C)cc5)nc34)CC2)c1C             2.7

###

Assay: AUC (0 to infinity) in orchidectomized Sprague-Dawley rat at 3 mg/kg, iv
Type: ADME, organism-based
Set-up: time infinity, dose 3 mg/kg, route intravenous
Settings: male, plasma
readout-type: AUC(0-inf)

> print(dat)
                           molecular.string  value.measured
1  CCn1cnc(CN2CCN(c3cccn4cc(-c5ccc(C(C)(C)C)cc5)nc34)CC2)c1C     685 ng·h/mL

###

Test: Cmax in orchidectomized Sprague-Dawley rat at 30 mg/kg, po
Format: ADME, organism-based
Parameters: dose 30 mg/kg, route oral
Details: male, in vivo
readout-type: Cmax

> print(dat)
                           molecular.string  value.measured
1  CCn1cnc(CN2CCN(c3cccn4cc(-c5ccc(C(C)(C)C)cc5)nc34)CC2)c1C       788 ng/mL
2  CCn1cnc(CN2CCN(c3cccc4[nH]c(-c5ccc(C(C)(C)C)cc5)nc34)CC2)c1C       533 ng/mL

###

Biological target: Gonadotropin-releasing hormone receptor (Rattus norvegicus)
Sequence (P30969 whole entry): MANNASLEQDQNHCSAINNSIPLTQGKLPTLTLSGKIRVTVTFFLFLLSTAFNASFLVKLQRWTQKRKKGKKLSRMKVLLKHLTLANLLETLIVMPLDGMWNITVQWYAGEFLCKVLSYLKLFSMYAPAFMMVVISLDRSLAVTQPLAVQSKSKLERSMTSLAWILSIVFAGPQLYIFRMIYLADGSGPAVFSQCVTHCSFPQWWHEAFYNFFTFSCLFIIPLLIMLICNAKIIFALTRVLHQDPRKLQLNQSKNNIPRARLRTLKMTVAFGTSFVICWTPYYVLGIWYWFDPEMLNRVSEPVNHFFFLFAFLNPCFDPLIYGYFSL
Experiment: Displacement of [125I]D-Trp6-GnRH from rat recombinant GNRH receptor by scintillation counting
pIC50: −log10 of the molar value.
So basically every entry gets a class from its pIC50, ranges being lower band (below 7), central band (7 to below 8), upper band (8 or more)

> print(dat)
                           molecular.string  assigned.category
1  CC(C)(C)c1ccc(-c2cn3cccc(N4CCN(Cc5cnc6ccccc6n5)CC4)c3n2)cc1       central band
2  CCc1nc(C)c(CN2CCN(c3cccc4[nH]c(-c5ccc(C(C)(C)C)cc5)nc34)CC2)[nH]1       central band
3  CCn1cc(CN2CCN(c3cccn4cc(-c5ccc(C(C)(C)C)cc5)nc34)CC2)c(=O)[nH]c1=O         upper band
4  CCc1nc(CN2CCN(c3cncc4[nH]c(-c5ccc(C(C)(C)C)cc5)nc34)CC2)c(C)[nH]1         lower band
5  CCc1nc(CN2CCN(c3cccn4cc(-c5ccc(C(C)(C)C)cc5)nc34)CC2)c(C)[nH]1       central band

###

Test: Tmax in orchidectomized Sprague-Dawley rat at 30 mg/kg, po
Format: ADME, organism-based
Set-up: dose 30 mg/kg, route oral
Details: male, in vivo
readout-type: Tmax (min)

> print(dat)
                           molecular.string  unit.of.measure  value.measured
1  CCn1cnc(CN2CCN(c3cccn4cc(-c5ccc(C(C)(C)C)cc5)nc34)CC2)c1C              min              48
